# Measurement target: T1, Human PDGF-BB (human, UniProt P01127 82-190)
# T1 construct: Recombinant human PDGF-BB, a homodimer of two B chains; also called hPDGF-BB; huPDGF-BB
# T1 sequence (P01127 82-190 limits assumed): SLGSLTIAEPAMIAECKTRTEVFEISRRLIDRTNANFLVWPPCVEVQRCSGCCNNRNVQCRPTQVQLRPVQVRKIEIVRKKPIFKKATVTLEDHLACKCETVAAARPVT
# Experimental details: SPR (Biacore), antibody captured via anti-human Fc, antigen in solution
Endpoint name: kon

Binder	kon
hBDI-5H1.10 (antibody, V domains shown, Humanized IgG) VH: EVTLRESGPALVKPTQTLTLTCTFSGFSLSTFGMGVGWIRQPPGKALEWLANIWWDDDKYYNPSLKNRLTISKDTSKNQAVLTITNMDPVDTATYYCARISTGISSYYVMDAWGQGTTVTVSS VL: DFQLTQSPSSLSASVGDRVTITCERSSGDIGDTYVSWYQQKPGKAPKNVIYGNDQRPSGVPSRFSGSGSGNSATLTISSLQPEDFATYFCQSYDSDIDIVFGQGTKVEIK	≥ 1e+07 M⁻¹ s⁻¹

Would you kindly look at the next entry?
Return the recorded kon value; entry: hBDI-5H1.1 (antibody, V domains shown, Humanized IgG) VH: EVTLRESGPALVKPTQTLTLTCTFSGFSLSTFGMGVGWIRQPPGKALEWLANIWWDDDKYYNPSLKNRLTISKDTSKNQVVLTMTNMDPVDTATYYCARISTGISSYYVMDAWGQGTTVTVSS VL: NFMLTQPHSVSESPGKTVTISCERSSGDIGDTYVSWYQQRPGSSPTTVIYGNDQRPSGVPDRFSGSIDSSSNSASLTISGLKTEDEADYYCQSYDSDIDIVFGGGTKLTVL
≥ 1e+07 M⁻¹ s⁻¹

The measured values listed here are drawn from patent US20170015742A1.
